Entry source: ChEMBL document CHEMBL4689842

- System: Fibroblast
- assay protocol: Multiplex assay against human fibroblast
- Assay type: toxicity, cell-based
- condition context: 48 h, 10 µM, compound concentration 10 uM, replicate 1
# note: boundary value 10% maps to Condition not met; Population Membrane Permeable-Phenotype (%) below it maps to Condition met

A selection of reference data follows.
>>> classification("COc1cc(N2CCC(N(C)C)CC2)ccc1Nc1ncc(Cl)c(Nc2ccccc2P(C)(C)=O)n1")
"Condition not met"
>>> classification("Cc1nc(Cc2cccc(C(F)(F)F)c2)sc1-c1ccc(C(N)=O)nc1 [TP-024n]")
"Condition not met"
>>> classification("COc1cc2c(NC3CCN(C(C)C)CC3)nc(N3CCC(F)(F)CC3)nc2cc1OCCCN1CCCC1")
"Condition met"
>>> classification("CC(=O)c1cc(-c2cc(C(=O)NC3CC3)ccc2C)c2ncccn12")
"Condition not met"
>>> classification("CNc1oc(-c2cccc3ccccc23)nc1C#N")
"Condition met"

Task: Strictly below 10%: is that where Population Membrane Permeable-Phenotype (%) of "Cl.Cl.Nc1ncnc2c1c(-c1cccc(OCc3ccccc3)c1)cn2[C@H]1C[C@@H](CN2CCC2)C1" sits?
Result: Condition met

Task: Strictly below 10%: is that where Population Membrane Permeable-Phenotype (%) of "CCCn1c(=O)c2[nH]c(C34CC5CC(CC3C5)C4)nc2n(CCC)c1=O" sits?
Result: Condition not met

Task: Strictly below 10%: is that where Population Membrane Permeable-Phenotype (%) of "Cc1cc2c(cc1N1C(=O)c3cccc4c(CCCO)ccc(c34)C1=O)n(C)c(=O)n2C" sits?
Result: Condition not met

----------
- System: HEK-293T
- assay protocol: Multiplex assay against HEK293T
- Type: toxicity, cell-based
- condition context: human, 12 h, 10 µM, compound concentration 10 uM, replicate 2
Would you please tag the item True when its Population Membrane Permeable-Phenotype (%) is 3% or above, and False when it is below?

>>> classification("CC(C)N1CCC(C)(C)c2cc(C#Cc3ccc(C(=O)O)cc3)ccc21")
"True"
>>> classification("CCCn1c(=O)c2[nH]c(C34CC5CC(CC3C5)C4)nc2n(CCC)c1=O")
"True"

Task: Check the entry CCC(=O)O[C@]1(C(=O)SCF)[C@H](C)C[C@H]2[C@@H]3C[C@H](F)C4=CC(=O)C=C[C@]4(C)[C@@]3(F)[C@@H](O)C[C@@]21C [FLUTICASONE PROPIONATE] : does Population Membrane Permeable-Phenotype (%) equal or exceed 3%?
Result: True

Task: Check the entry "CNc1oc(-c2cccc3ccccc23)nc1C#N" : does Population Membrane Permeable-Phenotype (%) equal or exceed 3%?
Result: True

Task: Check the entry "COc1ccc(NS(=O)(=O)c2sc3ccc(Cl)cc3c2C)cc1N1CCNCC1.Cl" : does Population Membrane Permeable-Phenotype (%) equal or exceed 3%?
Result: True

Task: Check the entry "CC(C)(C)c1cnc(CSc2cnc(NC(=O)C3CCNCC3)s2)o1" : does Population Membrane Permeable-Phenotype (%) equal or exceed 3%?
Result: False

Task: Check the entry "c1ccc2oc(-c3csc(C4CCN(Cc5nc6ncccc6[nH]5)CC4)n3)cc2c1" : does Population Membrane Permeable-Phenotype (%) equal or exceed 3%?
Result: False

Task: Check the entry "Cc1cn(-c2cc(NC(=O)c3ccc4c(c3)CN(c3cncnc3)C[C@@H]4C)cc(C(F)(F)F)c2)cn1" : does Population Membrane Permeable-Phenotype (%) equal or exceed 3%?
Result: True
